Target: PKC-θ kinase domain (PKC-θ KD; amino acid residues 362 to 706), C-terminal hexa-histidine tag, expressed in … (Homo sapiens (Human), UniProt Q04759 362-706, autophosphorylated at 5 or 6 residues in E. coli; sites identified: Ser695, Ser685 and Thr538 or Thr536 (numbering of full-length PKC-θ))
Sequence (Q04759 other isoform, or with tags, fused parts or gaps limits assumed): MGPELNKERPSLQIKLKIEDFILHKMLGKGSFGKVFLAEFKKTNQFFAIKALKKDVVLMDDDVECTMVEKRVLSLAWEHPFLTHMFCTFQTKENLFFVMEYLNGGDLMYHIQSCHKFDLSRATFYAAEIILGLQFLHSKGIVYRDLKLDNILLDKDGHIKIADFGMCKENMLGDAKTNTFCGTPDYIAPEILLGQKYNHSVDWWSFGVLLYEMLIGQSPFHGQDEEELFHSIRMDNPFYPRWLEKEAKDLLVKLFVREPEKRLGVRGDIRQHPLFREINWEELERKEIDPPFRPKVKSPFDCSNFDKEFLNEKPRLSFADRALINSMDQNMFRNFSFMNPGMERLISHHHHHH
Assay: cell-based or functional assay
REPORTED PROPERTY: appKm (steady-state kinase kinetics, saturating ATP, 100 mM NaCl) (µM)
# number only, unit µM dropped from output

Fill blank: measured appKm (steady-state kinase kinetics, saturating ATP, 100 mM NaCl) of the binder LKRSLSEM [Peptide 3 (LKRSLSEM), substrate, Serum Response Factor] is ____. 420

Try this binder too: FARKGSLRQ [Peptide 1 (FARKGSLRQ), substrate, pseudo-substrate PKC alpha] 6.5

What do you have for RFARKGSLRQKNV [Peptide 2 (RFARKGSLRQKNV), substrate, pseudo-substrate PKC alpha] ? 4.3

Now give it for RTPKLARQASIELPSM [Peptide 4 (RTPKLARQASIELPSM), substrate, lymphocyte-specific protein 1] too. 240
